# Tested on: UACC-375
# PROTOCOL SUMMARY: Tested for inhibitory activity against human tumor cell line UA375 of melanoma using sulforhodamine B assay.
# Type: functional, cell-based
Friendly reminder: IC50 below 300 nM is condition met, at or above is condition not met.

>  <STRUCTURE SMILES>
COc1cccc2c1cc1c3c(cccc32)C(=O)N(CCN(C)C)C1=O

>  <ASSIGNED LABEL>
condition not met

$$$$
>  <STRUCTURE SMILES>
CN(C)CCN1C(=O)c2cccc3c2c(cc2cccc(Cl)c23)C1=O

>  <ASSIGNED LABEL>
condition met

$$$$
>  <STRUCTURE SMILES>
CN(C)CCN1C(=O)c2cccc3cc4c(c(c23)C1=O)CCCC4

>  <ASSIGNED LABEL>
condition met

$$$$
>  <STRUCTURE SMILES>
CN(C)CCN1C(=O)c2c(NC(=O)C(C)(C)C)ccc3cc4c(c(c23)C1=O)CCCC4

>  <ASSIGNED LABEL>
condition not met

$$$$
>  <STRUCTURE SMILES>
CN(C)CCN1C(=O)c2cccc3c2c(cc2cccc(N)c23)C1=O

>  <ASSIGNED LABEL>
condition met

$$$$
>  <STRUCTURE SMILES>
CN(C)CCN1C(=O)c2c(N)ccc3cc4c(c(c23)C1=O)CCCC4

>  <ASSIGNED LABEL>
condition met

$$$$
>  <STRUCTURE SMILES>
CN(C)CCN1C(=O)c2cc3cccnc3c3ccc(N)c(c23)C1=O

>  <ASSIGNED LABEL>
condition met

$$$$
>  <STRUCTURE SMILES>
CN(C)CCN1C(=O)c2cccc3c2c(cc2c(N)cccc23)C1=O

>  <ASSIGNED LABEL>
condition not met

$$$$
>  <STRUCTURE SMILES>
CN(C)CCN1C(=O)c2cccc3c2c(cc2cccc([N+](=O)[O-])c23)C1=O

>  <ASSIGNED LABEL>
condition not met

$$$$
>  <STRUCTURE SMILES>
CN(C)CCN1C(=O)c2cccc3c2c(cc2c(O)cccc23)C1=O

>  <ASSIGNED LABEL>
condition not met

$$$$
>  <STRUCTURE SMILES>
CN(C)CCN1C(=O)c2cccc3c2c(cc2ccccc23)C1=O

>  <ASSIGNED LABEL>
condition not met

$$$$
>  <STRUCTURE SMILES>
CC(=O)Nc1ccc2cc3c(c4c2c1C(=O)N(CCN(C)C)C4=O)CCCC3

>  <ASSIGNED LABEL>
condition met

$$$$
>  <STRUCTURE SMILES>
CN(C)CCN1C(=O)c2cccc3c2c(cc2ncccc23)C1=O

>  <ASSIGNED LABEL>
condition not met

$$$$
>  <STRUCTURE SMILES>
CN(C)CCN1C(=O)c2cccc3c2c(cc2cccc(O)c23)C1=O

>  <ASSIGNED LABEL>
condition not met

$$$$
>  <STRUCTURE SMILES>
CN(C)CCN1C(=O)c2cccc3c2c(cc2c([N+](=O)[O-])cccc23)C1=O

>  <ASSIGNED LABEL>
condition met

$$$$
>  <STRUCTURE SMILES>
CN(C)CCN1C(=O)c2cc(N)cc3cc4c(c(c23)C1=O)CCCC4

>  <ASSIGNED LABEL>
condition not met

$$$$
>  <STRUCTURE SMILES>
CN(C)CCN1C(=O)c2cccc3c2c(cc2c(Cl)cccc23)C1=O

>  <ASSIGNED LABEL>
condition not met

$$$$
>  <STRUCTURE SMILES>
CC(=O)Nc1ccc2c3c(cc4cccnc42)C(=O)N(CCN(C)C)C(=O)c13

>  <ASSIGNED LABEL>
condition met

$$$$
>  <STRUCTURE SMILES>
CN(C)CCN1C(=O)c2cc(NC(=O)C(C)(C)C)cc3cc4c(c(c23)C1=O)CCCC4

>  <ASSIGNED LABEL>
condition not met

$$$$

Measured values drawn from ChEMBL document CHEMBL1133612 for this set.
